System: HCoV-229E
PROTOCOL_SUMMARY: HCoV-229E-Luc infection inhibition luciferase assay
Assay type: cell-based
MEASUREMENT_PARAMETERS: Human coronavirus 229E, Huh-7
I'd appreciate it if you could supply IC50 values for the items below.
Lab note: write values as number then unit, every time.

Consider the worked cases shown below.
C=Cc1c(C)c2cc3nc(c4c5[nH]c(cc6nc(cc1[nH]2)C(C)=C6CC)c(C)c5C(=O)[C@@H]4C(=O)OC)[C@@H](CCC(=O)O)[C@@H]3C [Pba, pheophorbide a] | 540 nM
C=Cc1c(C)c2cc3nc(c4c5[nH]c(cc6nc(cc1[nH]2)C(C)=C6CC)c(C)c5C(=O)C4)[C@@H](CCC(=O)O)[C@@H]3C [PyroPba, pyropheophorbide a] | 350 nM

Let us move to another entry and its IC50.
Q: Need IC50 of `C=Cc1c(C)c2cc3nc(c(CC(=O)O)c4[nH]c(cc5nc(cc1[nH]2)C(C)=C5CC)c(C)c4C(=O)O)[C@@H](CCC(=O)O)[C@@H]3C` , thanks.
Ans: 720 nM
